Test: CREB reporter modulators without forskolin, primary screen, cell-based, PC12, CRE-LacZ reporter, unstimulated (AID 1145)
Conditions: no forskolin, luminescence, 4.5 h, higher = more signal, called active from +8 up or from −8 down
Recorded z-score values for a group of compounds are listed next.
Lab note: write the figure by itself, no unit.

Some compounds with recorded z-score:
- compound: "CC(CCC(=O)OC[C@H]1O[C@H](C#Cc2ccccc2)C=C[C@@H]1Oc1ccc(C)cc1)=NOC[C@@H](O)[C@H]1O[C@@H]2OC(C)(C)O[C@@H]2[C@H]1O"
  recorded_result: 0.099
- compound: "CCCC=C(CCC)[C@@H](NC(=O)c1ccc(-c2ccccc2)cc1)c1ccc(C(=O)OC)cc1"
  recorded_result: 0.576
- compound: "CC(CCN1CCc2nc(-c3ccccc3)c(-c3ccccc3)cc2C1)=NOC(C)CN1CCCCc2nc(C)c(C)cc21 (centres undefined)"
  recorded_result: -0.147
- compound: "CC(=O)OC[C@H]1O[C@H](CCON=C(C)CCN2CCc3nc(-c4ccccc4)c(-c4ccccc4)cc3C2)C=C[C@@H]1OC(C)=O"
  recorded_result: 4.88
- compound: "CCN1C(=O)[C@H]2[C@H]3[C@H](O)[C@H](O)CC(=NOCC=C(C)CCC=C(C)C)[C@H]3CC[C@H]2C1=O"
  recorded_result: -0.0223

Query: Report z-score for "O=C1[C@H]2[C@H]3[C@H](O)[C@H](O)CC(=NOC[C@@H](O)COCc4ccco4)[C@H]3CC[C@H]2C(=O)N1C1CCCCC1" please.
Result: 3.33

Query: Follow-up item: "C=CC[C@@H]1C=C[C@H](ON=Cc2ccc(C(=O)N3[C@H](c4ccc(C)cc4)[C@@H](C)CC[C@H]3C(=O)OC)cc2)[C@@H](CO)O1"
Result: 3.89

Query: Follow-up item: "COCCOC(=O)N1C(=O)[C@@]2(c3cc(C#CCNC(N)=O)ccc31)[C@H](c1ccccc1OCCO)N1[C@H](c3ccccc3)[C@H](c3ccccc3)OC(=O)[C@H]1[C@@H]2C(=O)N1CCN(c2ncccn2)CC1"
Result: -0.465

Query: Follow-up item: "Cc1ccc(S[C@]2(C(=O)NCC(F)(F)F)CC(=O)N(Cc3ccccc3Cl)[C@@H]2c2ccc(CO)cc2I)cc1"
Result: 3.13

Query: Follow-up item: "COC(=O)CC=C[C@H](C)[C@@H](OCc1ccccc1Br)C(C)C"
Result: 0.194

Query: Follow-up item: "CC(C)NC(=O)[C@@H]1c2ccccc2C(=O)N(CC23CC4CC(CC(C4)C2)C3)[C@H]1c1ccc(CO)cc1"
Result: -0.0259

Query: Follow-up item: "COC(=O)C1=C(C)[C@@H](O)[C@@H](C)[C@H](c2c(OC)c(OC)c(C)c(OC)c2OC)O1"
Result: 2.18

Query: Follow-up item: "CO[C@@H]1COC(=O)CC=C[C@@H](C)[C@@H]2C=C[C@@H](O)[C@@H](COC(=O)CC=C[C@H]1C)O2"
Result: 0.343

Query: Follow-up item: "CCOC(=O)C[C@H]1[C@H](OC(=O)c2ccc(C(=O)c3ccccc3)cc2)[C@@H](NC(=O)c2ccc(-c3ccccc3)cc2)c2cc(OCCCO)ccc2N1C(=O)c1ccc2ccccc2n1"
Result: -0.738
